experiment: The drug is tested on WLS-038 corresponding to human gut metagenome with ENA study accession number: PRJEB37062 and ENA sample accession number: ERS12561745 for biotransformation under anaerobic condition. The drug concentrations were measured over 9 timepoints collected between 0 and 24 hours of incubation by liquid-chromatography-coupled mass spectrometry (LC–MS); details: 2 µM; also: call rule not given here

{"Compound": "O=C1CC2(CCCC2)CC(=O)N1CCCCN1CCN(c2ncccn2)CC1", "Bacterial Biotransformation": "Compound NOT metabolized"}
{"Compound": "C[C@@H](c1ncncc1F)[C@](O)(Cn1cncn1)c1ccc(F)cc1F", "Bacterial Biotransformation": "Compound metabolized"}
{"Compound": "CCOC(=O)C1=C(C)NC(C)=C(C(=O)OC)C1c1cccc([N+](=O)[O-])c1 (stereo not given)", "Bacterial Biotransformation": "Compound metabolized"}
{"Compound": "COc1cc2nc(N3CCN(C(=O)C4CCCO4)CC3)nc(N)c2cc1OC (stereo not given)", "Bacterial Biotransformation": "Compound NOT metabolized"}
{"Compound": "CC(=O)Nc1ccc(OC(C)=O)cc1 [DIACETAMATE]", "Bacterial Biotransformation": "Compound metabolized"}
